- Test: HepG2 cell cytotoxicity, dose response, cytotoxicity control, cherry-picked samples (AID 1159577)
- Reported conditions: HepG2 cytotoxicity counterscreen, plate reader; series mostly up to 19.5 µM
The campaign covered roughly 1,300 compounds. About 240 (18%) were called active. About 8% were inconclusive and are not listed. These entries were drawn from the full list. Measured potencies and affinities stand elsewhere.
Assay endpoint: outcome

Recorded results for 5 compounds are shown here.
O=C(C1CC1)N1C[C@@H]2N[C@H](C1)C2c1ccc(-c2cccc(F)c2)cc1 (stereo partly specified)
inactive
COc1ccc(NC(=O)N2CCC3(CC2)CN(C(=O)C2CCC2)[C@@H](CO)c2c3c3ccc(OC)cc3n2C)cc1
inactive
N#C[C@@H]1[C@@H](c2ccc(C3=CCCCC3)cc2)[C@H](CO)N1C(=O)NC1CCCC1
inactive
C[C@@H]1CN([C@H](C)CO)C(=O)c2cc(NC(=O)CCC(F)(F)F)ccc2O[C@H]1CN(C)C(=O)NC1CCCCC1
inactive
O=C(C1CCC1)N1C[C@@H]2N[C@H](C1)C2c1ccc(-c2ccccc2F)cc1 (stereo partly specified)
inactive

Would you mind giving outcome for every compound in the list below?
1. C/C=C/c1ccc([C@H]2[C@H](CO)N(S(=O)(=O)Cc3ccccc3)C23CN(C(=O)C2CCCC2)C3)cc1
2. COc1ccc(NC(=O)N(C)C[C@@H]2Oc3cc(-c4ccc(C)cc4)ccc3S(=O)(=O)N([C@@H](C)CO)C[C@@H]2C)cc1
3. CCCNC(=O)N1[C@H](C#N)[C@@H](c2ccccc2C2=CCCC2)[C@@H]1CO

Response:
["inactive", "inactive", "inactive"]

Quick one: give me outcome for each item below, same order please.
1. O=C(c1cccc(F)c1)N1CC(=O)N2[C@H](CO)[C@H](c3ccc(-c4cccnc4)cc3)[C@H]2C1
2. CCCNC(=O)Nc1ccc2c(c1)OC[C@@H](C)N(CC1CCCC1)C[C@@H](C)[C@H](OC)CN(C)C2=O
3. C[C@@H]1CN([C@H](C)CO)C(=O)c2cccc(NC(=O)c3nc4ccccc4s3)c2O[C@H]1CN(C)C(=O)Nc1ccc(C(F)(F)F)cc1
4. C[C@@H]1CN([C@H](C)CO)C(=O)c2cc(/C=C/c3ccccc3)cnc2O[C@H]1CN(C)C(=O)NC1CCCCC1
5. O=S(=O)(Cc1ccccc1)N1[C@H](CO)[C@@H](c2ccccc2)C12CN(CCC(F)(F)F)C2
6. C[C@H](CO)N1C[C@H](C)[C@H](CN(C)S(=O)(=O)c2ccc(Cl)cc2)OCc2ccccc2-c2c(n(C)c3ccccc23)C1=O

Response:
1: inactive; 2: inactive; 3: inactive; 4: inactive; 5: inactive; 6: inactive

Could you tell me outcome for each of these compounds? They are listed below.
1. CCCNC(=O)N1CC(=O)N2[C@@H](CO)[C@@H](c3ccc(C#Cc4cccc(OC)c4)cc3)[C@@H]2C1
2. C[C@H](CO)N1C[C@H](C)[C@@H](CN(C)C(=O)c2ccccc2F)Oc2ncc(C#Cc3cccc(F)c3)cc2C1=O

Response:
["inactive", "inactive"]
